Study target: T1, PSMA Fab (SEQ ID NOs: 19, 20)
T1 construct: also called Anti-PSMA Fab; 006 PSMA Fab
Method: clonal phage ELISA; captured biotinylated PSMA Fab pre-incubated with PSMA antigen as competitor, anti-M13-HRP detection
Where no end group is shown, it is not given here.
Catalogue of binders with associated Phage binding ELISA signal, Anti-PSMA Fab with PSMA antigen
// return just the number, without any unit appended

Binder	Result
YTAMCVPVWMCNVL (cysteine pairing not given here; also: displayed on phage as fusion to pIII, junction not given here, Tested as clonal phage supernatant; not shown: pIII coat protein of the bacteriophage to which the peptide is fused) [Phage-3813 (Peptide-180 library clone, SEQ ID NO: 4129)]	0.0695
DQAACVPAWMCTGF (Tested as clonal phage supernatant; not shown: pIII coat protein of the bacteriophage to which the peptide is fused) [Phage-3806 (Peptide-180 library clone, SEQ ID NO: 4122)]	0.117
AYPMCSPAWMCAGF (cysteine pairing not given here; also: displayed on phage as fusion to pIII, junction not given here, Tested as clonal phage supernatant; not shown: pIII coat protein of the bacteriophage to which the peptide is fused) [Phage-3812 (Peptide-180 library clone, SEQ ID NO: 4128)]	0.0779
VVSHCKPIWMCSGF (Tested as clonal phage supernatant; not shown: pIII coat protein of the bacteriophage to which the peptide is fused) [Phage-3807 (Peptide-180 library clone, SEQ ID NO: 4123)]	0.083
HMIHCVPDWMCEGF (Tested as clonal phage supernatant; not shown: pIII coat protein of the bacteriophage to which the peptide is fused) [Phage-3805 (Peptide-180 library clone, SEQ ID NO: 4121)]	0.0847

Now turn to the next binder.
So, EWLVCKPAWMCLGL (Tested as clonal phage supernatant; not shown: pIII coat protein of the bacteriophage to which the peptide is fused) [Phage-3801 (Peptide-180 library clone, SEQ ID NO: 4117)] ? Its Phage binding ELISA signal, Anti-PSMA Fab with PSMA antigen was 0.0609
